Listing of entries alongside the reported tissue uptake dose at 2 h.
- experiment: Biodistribution in BALB/c nu/nu mice bearing PC-3 xenografts
- Format: in vivo
- settings: female, BALB/c nu/nu, mouse, carcass, iv, 50 pmol, total radioactivity; 2 h p.i., i.v.; read-out: Radionuclide quantity, Carcass
Starred links: 1 amine or outer side, 2 acyl side, 3 side chain; linkers in the order of their positions; H or OH if unused. Non-standard residues stand in square brackets, D forms with d. Residues, ends and D or L forms follow the SMILES beside them. *: point of attachment. NOTA = O=C(O)CN1CCN(CC(=O)O)CCN(CC(=O)*)CC1; Sta = CC(C)C[C@H](N)[C@@H](O)CC(=O)O; X2 = O=C(COc1cccc(CN[*:1])c1)[*:2]; X1 = O=C(Cc1ccccc1CCN[*:1])[*:2]; X3 = O=C(COc1ccccc1CN[*:1])[*:2]
measured_metric: tissue uptake dose at 2 h (%ID)

compound="CC(=O)N[C@@H](CCCCNC(=O)CN1CCN(CC(=O)O)CCN(CC(=O)O)CC1)C(=O)NCc1cccc(OCC(=O)N[C@H](Cc2ccccc2)C(=O)N[C@@H](CCC(N)=O)C(=O)N[C@@H](Cc2c[nH]c3ccccc23)C(=O)N[C@@H](C)C(=O)N[C@H](C(=O)NCC(=O)N[C@@H](Cc2c[nH]cn2)C(=O)N[C@@H](CC(C)C)[C@@H](O)CC(=O)N[C@@H](CC(C)C)C(N)=O)C(C)C)c1 [[^68Ga]Ga-NOTA-mMA-RM26, metal not drawn] (Ac-K(NOTA)[X2][dF]QWAVGH[Sta]L-NH2)" reported_value=2.8
compound="CC(=O)N[C@@H](CCCCNC(=O)CN1CCN(CC(=O)O)CCN(CC(=O)O)CC1)C(=O)NCCc1ccccc1CC(=O)N[C@H](Cc1ccccc1)C(=O)N[C@@H](CCC(N)=O)C(=O)N[C@@H](Cc1c[nH]c2ccccc12)C(=O)N[C@@H](C)C(=O)N[C@H](C(=O)NCC(=O)N[C@@H](Cc1c[nH]cn1)C(=O)N[C@@H](CC(C)C)[C@@H](O)CC(=O)N[C@@H](CC(C)C)C(N)=O)C(C)C [[^68Ga]Ga-NOTA-oET-RM26, metal not drawn] (Ac-K(NOTA)[X1][dF]QWAVGH[Sta]L-NH2)" reported_value=4.1
compound="CC(=O)N[C@@H](CCCCNC(=O)CN1CCN(CC(=O)O)CCN(CC(=O)O)CC1)C(=O)NCc1ccccc1OCC(=O)N[C@H](Cc1ccccc1)C(=O)N[C@@H](CCC(N)=O)C(=O)N[C@@H](Cc1c[nH]c2ccccc12)C(=O)N[C@@H](C)C(=O)N[C@H](C(=O)NCC(=O)N[C@@H](Cc1c[nH]cn1)C(=O)N[C@@H](CC(C)C)[C@@H](O)CC(=O)N[C@@H](CC(C)C)C(N)=O)C(C)C [[^68Ga]Ga-NOTA-oMA-RM26, metal not drawn] (Ac-K(NOTA)[X3][dF]QWAVGH[Sta]L-NH2)" reported_value=2.9

* * *

Listing of entries alongside the reported tissue uptake at 2 h.
- experiment: Biodistribution in BALB/c nu/nu mice bearing PC-3 xenografts
- Assay type: in vivo
- settings: female, BALB/c nu/nu, mouse, kidneys, iv, total radioactivity; Blockade (co-injection of NOTA-PEG2-RM26), 2 h; read-out: Radionuclide concentration, Kidneys
Starred links: 1 amine or outer side, 2 acyl side, 3 side chain; linkers in the order of their positions; H or OH if unused. Non-standard residues stand in square brackets, D forms with d. Residues, ends and D or L forms follow the SMILES beside them. *: point of attachment. NOTA = O=C(O)CN1CCN(CC(=O)O)CCN(CC(=O)*)CC1; Sta = CC(C)C[C@H](N)[C@@H](O)CC(=O)O; X2 = O=C(COc1cccc(CN[*:1])c1)[*:2]; X1 = O=C(Cc1ccccc1CCN[*:1])[*:2]; X3 = O=C(COc1ccccc1CN[*:1])[*:2]
measured_metric: tissue uptake at 2 h (%ID/g)

molecule="CC(=O)N[C@@H](CCCCNC(=O)CN1CCN(CC(=O)O)CCN(CC(=O)O)CC1)C(=O)NCc1cccc(OCC(=O)N[C@H](Cc2ccccc2)C(=O)N[C@@H](CCC(N)=O)C(=O)N[C@@H](Cc2c[nH]c3ccccc23)C(=O)N[C@@H](C)C(=O)N[C@H](C(=O)NCC(=O)N[C@@H](Cc2c[nH]cn2)C(=O)N[C@@H](CC(C)C)[C@@H](O)CC(=O)N[C@@H](CC(C)C)C(N)=O)C(C)C)c1 [[^68Ga]Ga-NOTA-mMA-RM26, metal not drawn] (Ac-K(NOTA)[X2][dF]QWAVGH[Sta]L-NH2)" measured_metric="tissue uptake at 2 h" reported_value=7.6
molecule="CC(=O)N[C@@H](CCCCNC(=O)CN1CCN(CC(=O)O)CCN(CC(=O)O)CC1)C(=O)NCCc1ccccc1CC(=O)N[C@H](Cc1ccccc1)C(=O)N[C@@H](CCC(N)=O)C(=O)N[C@@H](Cc1c[nH]c2ccccc12)C(=O)N[C@@H](C)C(=O)N[C@H](C(=O)NCC(=O)N[C@@H](Cc1c[nH]cn1)C(=O)N[C@@H](CC(C)C)[C@@H](O)CC(=O)N[C@@H](CC(C)C)C(N)=O)C(C)C [[^68Ga]Ga-NOTA-oET-RM26, metal not drawn] (Ac-K(NOTA)[X1][dF]QWAVGH[Sta]L-NH2)" measured_metric="tissue uptake at 2 h" reported_value=3.3
molecule="CC(=O)N[C@@H](CCCCNC(=O)CN1CCN(CC(=O)O)CCN(CC(=O)O)CC1)C(=O)NCc1ccccc1OCC(=O)N[C@H](Cc1ccccc1)C(=O)N[C@@H](CCC(N)=O)C(=O)N[C@@H](Cc1c[nH]c2ccccc12)C(=O)N[C@@H](C)C(=O)N[C@H](C(=O)NCC(=O)N[C@@H](Cc1c[nH]cn1)C(=O)N[C@@H](CC(C)C)[C@@H](O)CC(=O)N[C@@H](CC(C)C)C(N)=O)C(C)C [[^68Ga]Ga-NOTA-oMA-RM26, metal not drawn] (Ac-K(NOTA)[X3][dF]QWAVGH[Sta]L-NH2)" measured_metric="tissue uptake at 2 h" reported_value=6.2

* * *

Listing of entries alongside the reported tissue uptake dose at 2 h.
- experiment: Biodistribution in BALB/c nu/nu mice bearing PC-3 xenografts
- Assay type: in vivo
- settings: female, BALB/c nu/nu, mouse, total (sum of the measured activities), iv, 50 pmol, total radioactivity; 2 h p.i., i.v.; sum of the measured activities; read-out: Radionuclide quantity, Total
Starred links: 1 amine or outer side, 2 acyl side, 3 side chain; linkers in the order of their positions; H or OH if unused. Non-standard residues stand in square brackets, D forms with d. Residues, ends and D or L forms follow the SMILES beside them. *: point of attachment. NOTA = O=C(O)CN1CCN(CC(=O)O)CCN(CC(=O)*)CC1; Sta = CC(C)C[C@H](N)[C@@H](O)CC(=O)O; X2 = O=C(COc1cccc(CN[*:1])c1)[*:2]; X1 = O=C(Cc1ccccc1CCN[*:1])[*:2]; X3 = O=C(COc1ccccc1CN[*:1])[*:2]
measured_metric: tissue uptake dose at 2 h (%ID)

compound="CC(=O)N[C@@H](CCCCNC(=O)CN1CCN(CC(=O)O)CCN(CC(=O)O)CC1)C(=O)NCc1ccccc1OCC(=O)N[C@H](Cc1ccccc1)C(=O)N[C@@H](CCC(N)=O)C(=O)N[C@@H](Cc1c[nH]c2ccccc12)C(=O)N[C@@H](C)C(=O)N[C@H](C(=O)NCC(=O)N[C@@H](Cc1c[nH]cn1)C(=O)N[C@@H](CC(C)C)[C@@H](O)CC(=O)N[C@@H](CC(C)C)C(N)=O)C(C)C [[^68Ga]Ga-NOTA-oMA-RM26, metal not drawn] (Ac-K(NOTA)[X3][dF]QWAVGH[Sta]L-NH2)" measured_metric="tissue uptake dose at 2 h" readout_units=%ID reported_value=19.8
compound="CC(=O)N[C@@H](CCCCNC(=O)CN1CCN(CC(=O)O)CCN(CC(=O)O)CC1)C(=O)NCCc1ccccc1CC(=O)N[C@H](Cc1ccccc1)C(=O)N[C@@H](CCC(N)=O)C(=O)N[C@@H](Cc1c[nH]c2ccccc12)C(=O)N[C@@H](C)C(=O)N[C@H](C(=O)NCC(=O)N[C@@H](Cc1c[nH]cn1)C(=O)N[C@@H](CC(C)C)[C@@H](O)CC(=O)N[C@@H](CC(C)C)C(N)=O)C(C)C [[^68Ga]Ga-NOTA-oET-RM26, metal not drawn] (Ac-K(NOTA)[X1][dF]QWAVGH[Sta]L-NH2)" measured_metric="tissue uptake dose at 2 h" readout_units=%ID reported_value=16.3
compound="CC(=O)N[C@@H](CCCCNC(=O)CN1CCN(CC(=O)O)CCN(CC(=O)O)CC1)C(=O)NCc1cccc(OCC(=O)N[C@H](Cc2ccccc2)C(=O)N[C@@H](CCC(N)=O)C(=O)N[C@@H](Cc2c[nH]c3ccccc23)C(=O)N[C@@H](C)C(=O)N[C@H](C(=O)NCC(=O)N[C@@H](Cc2c[nH]cn2)C(=O)N[C@@H](CC(C)C)[C@@H](O)CC(=O)N[C@@H](CC(C)C)C(N)=O)C(C)C)c1 [[^68Ga]Ga-NOTA-mMA-RM26, metal not drawn] (Ac-K(NOTA)[X2][dF]QWAVGH[Sta]L-NH2)" measured_metric="tissue uptake dose at 2 h" readout_units=%ID reported_value=16.5
